Source: patent EP4039268A1

Listing of recorded Mean normalized OD by entry.
target.or.system: T1, human recombinant soluble ACE2 (human, UniProt Q9BYF1 18-740)
T1 construct: also called hrsACE2
procedure.summary: ELISA screen
Give a bare numeral; the unit OD is implied.

INSERT INTO measurements (binder, result) VALUES
  ('Mrc2_5 CRD-mouse IgG2a-Fc fusion protein (Fc fusion) FQEAEYKFFEHHSSWAQAQRICTWFQADLTSVHSQAELDFLGQNLQKLSSDQEQHWWIGLHTLESDGRFRWTDGSIINFISWAPGKPRPIGKDKKCVYMTARQEDWGDQRCHTALPYICKGGGSGGGSGGGS', -0.005);

Return value of Mean normalized OD for input Klrb1c CRD-mouse IgG2a-Fc fusion protein (Fc fusion) HRDKCFHVSQVSNTWEEGQADCGRKGATLLLIQDQEELRFLLDSIKEKYNSFWIGLRFTLPDMNWKWINGTTFNSDVLKITGVTENGSCASILGDKVTPESCASDNRWICQGGGSGGGSGGGS , no commentary.
-0.004

Output Mean normalized OD of Klrg2 CRD-mouse IgG2a-Fc fusion protein (Fc fusion) SQEQCYYLSEEAQDWEGSQAFCSAHHATLPLLSHTQDFLRKYRITKGSWVGARRGPEGWHWTDGVPLPYQLFPADSEDHPDFSCGGLEEGRLVALDCSSPRPWVCAGGGSGGGSGGGS
-0.013

For Colec11 CRD-mouse IgG2a-Fc fusion protein (Fc fusion) TESKIYLLVKEEKRYADAQLSCQARGGTLSMPKDEAANGLMASYLAQAGLARVFIGINDLEKEGAFVYSDRSPMQTFNKWRSGEPNNAYDEEDCVEMVASGGWNDVACHITMYFMCEGGGSGGGSGGGS , write its Mean normalized OD.
0.153
